Experiment: ATG_M_19_CIS: Attagene CIS-FACTORIAL HepG2 Assay for M19 Transcription Factor (Internal Marker) (AID 2282939)
Conditions: HepG2 Attagene CIS-FACTORIAL M19 internal marker reporter; actives raise or lower the signal
Activity calls are given as the source filed them. Rule for the calls: active = hit-call score of the fitted dose curve at least 0.9, where 1 is the maximum; inactive = score below 0.9.
Outcomes: t (active), f (inactive)

{"compound": "Cl[C@H]1OCCO[C@@H]1Cl", "assignedCategory": "f"}
{"compound": "Cc1cccc(OP(=O)(Oc2cccc(C)c2)Oc2cccc(C)c2)c1", "assignedCategory": "f"}
{"compound": "CC(C)(c1ccc(O)c(-c2ccccc2)c1)c1ccc(O)c(-c2ccccc2)c1", "assignedCategory": "f"}
{"compound": "CC(=O)CN(CC(C)=O)N=O", "assignedCategory": "f"}
{"compound": "Cc1ccccc1OP(=O)(Oc1ccccc1)Oc1ccccc1", "assignedCategory": "f"}
{"compound": "N#CCCC(Br)(C#N)CBr (configuration not stated)", "assignedCategory": "f"}
{"compound": "Nc1ccc(-c2ccccc2)cc1", "assignedCategory": "f"}
{"compound": "CCN(N=O)C(N)=O", "assignedCategory": "f"}
{"compound": "CCOP(=S)(OCC)O/N=C(\\C#N)c1ccccc1", "assignedCategory": "f"}
{"compound": "O=C(CCl)Nc1ccccc1", "assignedCategory": "t"}
{"compound": "CCN(CC)C(=O)C(Cl)=C(C)OP(=O)(OC)OC", "assignedCategory": "f"}
{"compound": "Cc1cc(Cl)ccc1OCCCC(=O)O", "assignedCategory": "f"}
{"compound": "CCCCCCCCCCCCOS(=O)(=O)O", "assignedCategory": "f"}
{"compound": "CC(C)(COCC1CO1)COCC1CO1 (configuration not stated)", "assignedCategory": "f"}
{"compound": "C=CC(=O)[O][Sn]([CH2]CCC)([CH2]CCC)[CH2]CCC", "assignedCategory": "f"}
{"compound": "CC(C)(C)c1cc([N+](=O)[O-])cc(C(C)(C)C)c1O", "assignedCategory": "f"}
{"compound": "O=C1C[C@@H]2OCC=C3CN4CC[C@]56c7ccccc7N1[C@H]5[C@H]2[C@H]3C[C@H]46", "assignedCategory": "f"}
{"compound": "CC(C)C(C)(N)C#N (configuration not stated)", "assignedCategory": "f"}
{"compound": "O=C(CCl)NCO", "assignedCategory": "f"}
{"compound": "O=C(O)COc1ccc(Cl)cc1", "assignedCategory": "f"}
{"compound": "CCOC(=O)OC1=C(c2cc(C)ccc2C)C(=O)NC12CCC(OC)CC2 (configuration not stated)", "assignedCategory": "f"}
{"compound": "OC(c1ccc(Cl)cc1)(c1ccc(Cl)cc1)c1cccnc1", "assignedCategory": "f"}
{"compound": "C=C(C)[C@@H]1CC=C(C=O)CC1", "assignedCategory": "f"}
{"compound": "O=C(Nc1ccc(Br)cc1)c1cc(Br)cc(Br)c1O", "assignedCategory": "f"}
{"compound": "Clc1cc(C(Cl)(Cl)Cl)cnc1Cl", "assignedCategory": "f"}
{"compound": "CCOC(=O)CCN(SN(C)C(=O)Oc1cccc2c1OC(C)(C)C2)C(C)C", "assignedCategory": "f"}
{"compound": "Cc1cc(SCc2sc(-c3ccc(C(F)(F)F)c(F)c3)nc2C)ccc1OCC(=O)O", "assignedCategory": "f"}
{"compound": "COCC(=O)N(c1c(C)cccc1C)[C@H](C)C(=O)OC", "assignedCategory": "f"}
{"compound": "Oc1cccc(-c2ccccc2)c1", "assignedCategory": "f"}
{"compound": "CCCCN(CCCCO)N=O", "assignedCategory": "f"}
{"compound": "O=c1[nH]c2ccccc2n1C1CCN(CCCC(c2ccc(F)cc2)c2ccc(F)cc2)CC1", "assignedCategory": "f"}
{"compound": "Brc1c(Br)c(Br)c(Oc2c(Br)c(Br)c(Br)c(Br)c2Br)c(Br)c1Br", "assignedCategory": "f"}
{"compound": "Clc1cccc(Cl)c1", "assignedCategory": "f"}
{"compound": "O=C(NC(=O)c1c(F)cccc1F)Nc1cc(Cl)c(OC(F)(F)C(F)C(F)(F)F)cc1Cl (configuration not stated)", "assignedCategory": "f"}
{"compound": "CCOc1ccc(N)cc1", "assignedCategory": "f"}
{"compound": "O=C(Cc1ccccc1)OCCc1ccccc1", "assignedCategory": "f"}
{"compound": "N#Cc1ccc(Cl)cc1", "assignedCategory": "f"}
{"compound": "CC(C)(c1ccccc1)c1cc(-n2nc3ccccc3n2)c(O)c(C(C)(C)c2ccccc2)c1", "assignedCategory": "f"}
{"compound": "ClCCCCl", "assignedCategory": "f"}
{"compound": "O=C1c2ccccc2C(=O)C1C(=O)C(c1ccccc1)c1ccc(Cl)cc1 (configuration not stated)", "assignedCategory": "t"}
{"compound": "CC(O)(CS(=O)(=O)c1ccc(F)cc1)C(=O)Nc1ccc(C#N)c(C(F)(F)F)c1 (configuration not stated)", "assignedCategory": "f"}
{"compound": "Cc1cc(Cl)ccc1N", "assignedCategory": "f"}
{"compound": "CC(C)N(C(=O)CCl)c1ccccc1", "assignedCategory": "f"}
{"compound": "CN(N=O)c1ccc([N+](=O)[O-])cc1", "assignedCategory": "f"}
{"compound": "Cc1ccccc1OP(=O)(Oc1ccccc1C)Oc1ccccc1C", "assignedCategory": "f"}
{"compound": "COC(=O)Nc1cccc(OC(=O)Nc2cccc(C)c2)c1", "assignedCategory": "f"}
{"compound": "C=C(C)C(=O)OCC(CC)CCCC (configuration not stated)", "assignedCategory": "f"}

* * *

Experiment: TOX21_p53_BLA_p4_viability: Viability Assessment in the Tox21 HCT-116 p53 Agonism Beta-lactamase Assay, Phase 4 (AID 2283597);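 note: hits lower the luminescence signal meaning cytotoxicity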
Results filed as inconclusive are left out. Calls of active or inactive are those of the source. The calls were made as follows: active = hit-call score of the fitted dose curve at least 0.9, where 1 is the maximum; inconclusive = response in the unintended direction; inactive = score below 0.9.
Outcome codes: 1.0 = active, 0.0 = inactive

{"compound": "Nc1ccc(-c2ccccc2)cc1", "assignedCategory": 0.0}
{"compound": "O=C(CCl)Nc1ccccc1", "assignedCategory": 0.0}
{"compound": "Cc1cc(Cl)ccc1O", "assignedCategory": 0.0}
{"compound": "O=C(Cc1ccccc1)OCCc1ccccc1", "assignedCategory": 0.0}
{"compound": "C=CC(=O)[O][Sn]([CH2]CCC)([CH2]CCC)[CH2]CCC", "assignedCategory": 1.0}
{"compound": "O=[N+]([O-])c1ccccc1O", "assignedCategory": 0.0}
{"compound": "Cc1cc(C(F)(C(F)(F)F)C(F)(F)F)ccc1NC(=O)c1cccc(I)c1C(=O)NC(C)(C)CS(C)(=O)=O", "assignedCategory": 0.0}
{"compound": "CC(C)(C)c1cc([N+](=O)[O-])cc(C(C)(C)C)c1O", "assignedCategory": 1.0}
{"compound": "O=C(NC(=O)c1c(F)cccc1F)Nc1cc(Cl)c(OC(F)(F)C(F)C(F)(F)F)cc1Cl (stereo not drawn)", "assignedCategory": 0.0}
{"compound": "O=S1OC[C@@H]2[C@H](CO1)[C@]1(Cl)C(Cl)=C(Cl)[C@@]2(Cl)C1(Cl)Cl (stereo partly drawn)", "assignedCategory": 1.0}
{"compound": "O=C(NC(=O)c1c(F)cccc1F)Nc1cc(Cl)c(F)c(Cl)c1F", "assignedCategory": 0.0}
{"compound": "N#CS", "assignedCategory": 0.0}
{"compound": "O=[N+]([O-])c1cccc2ccccc12", "assignedCategory": 0.0}
{"compound": "CCN(CC)C(=O)C(Cl)=C(C)OP(=O)(OC)OC", "assignedCategory": 0.0}
{"compound": "COc1ccc(N)cc1", "assignedCategory": 0.0}
{"compound": "C=CC(=O)NC(C)(C)CC(C)=O", "assignedCategory": 0.0}
{"compound": "OC(c1ccc(Cl)cc1)(c1ccc(Cl)cc1)c1cccnc1", "assignedCategory": 1.0}
{"compound": "CCOP(=S)(OCC)OP(=S)(OCC)OCC", "assignedCategory": 0.0}
{"compound": "Clc1ccc(C(Cl)(Cl)Cl)cn1", "assignedCategory": 0.0}
{"compound": "CC(C)(c1ccccc1)c1cc(-n2nc3ccccc3n2)c(O)c(C(C)(C)c2ccccc2)c1", "assignedCategory": 0.0}
{"compound": "O=[N+]([O-])c1c2ccccc2cc2ccccc12", "assignedCategory": 0.0}
{"compound": "Cl[C@H]1OCCO[C@@H]1Cl", "assignedCategory": 0.0}
{"compound": "OCC(c1ccc(Cl)cc1)c1ccc(Cl)cc1", "assignedCategory": 1.0}
{"compound": "CC(C)[N+](=O)[O-]", "assignedCategory": 0.0}
{"compound": "C#CCOC(=O)/C=C(C)/C=C/CC(C)CCCC(C)C (stereo not drawn)", "assignedCategory": 0.0}
{"compound": "COP(=S)(OC)Oc1cc(Cl)c(I)cc1Cl", "assignedCategory": 0.0}
{"compound": "O=C1c2ccccc2C(=O)C1C(=O)C(c1ccccc1)c1ccc(Cl)cc1 (stereo not drawn)", "assignedCategory": 1.0}
{"compound": "O=C(O)COc1ccc(Cl)cc1", "assignedCategory": 0.0}
{"compound": "O=C1C[C@@H]2OCC=C3CN4CC[C@]56c7ccccc7N1[C@H]5[C@H]2[C@H]3C[C@H]46", "assignedCategory": 0.0}
{"compound": "C=CC(=O)OCC(COC(=O)C=C)(COC(=O)C=C)COC(=O)C=C", "assignedCategory": 1.0}
{"compound": "Nc1ccc(Br)cc1", "assignedCategory": 0.0}
{"compound": "COC(=O)Nc1cccc(OC(=O)Nc2cccc(C)c2)c1", "assignedCategory": 0.0}
{"compound": "CN(C)[C@@H]1C(=O)C(C(N)=O)=C(O)[C@@]2(O)C(=O)C3=C(O)c4c(O)ccc(Cl)c4[C@@](C)(O)[C@H]3C[C@@H]12", "assignedCategory": 0.0}
{"compound": "CC(C)[C@@H](Nc1ccc(C(F)(F)F)cc1Cl)C(=O)OC(C#N)c1cccc(Oc2ccccc2)c1 (stereo partly drawn)", "assignedCategory": 0.0}
{"compound": "CC1(C)[C@H](/C=C2\\CCSC2=O)[C@@H]1C(=O)OCc1coc(Cc2ccccc2)c1", "assignedCategory": 0.0}
{"compound": "N#CCCC(Br)(C#N)CBr (stereo not drawn)", "assignedCategory": 0.0}
{"compound": "Cc1ccccc1OP(=O)(Oc1ccccc1C)Oc1ccccc1C", "assignedCategory": 0.0}
{"compound": "CCNc1nc(NCC)nc(SC)n1", "assignedCategory": 0.0}

Reference for the values: PubChem BioAssay (EPA / NIEHS)
